Target: RPS6KA3 KD1 (human) (UniProt P51812)
Sequence (P51812 whole entry, looked up): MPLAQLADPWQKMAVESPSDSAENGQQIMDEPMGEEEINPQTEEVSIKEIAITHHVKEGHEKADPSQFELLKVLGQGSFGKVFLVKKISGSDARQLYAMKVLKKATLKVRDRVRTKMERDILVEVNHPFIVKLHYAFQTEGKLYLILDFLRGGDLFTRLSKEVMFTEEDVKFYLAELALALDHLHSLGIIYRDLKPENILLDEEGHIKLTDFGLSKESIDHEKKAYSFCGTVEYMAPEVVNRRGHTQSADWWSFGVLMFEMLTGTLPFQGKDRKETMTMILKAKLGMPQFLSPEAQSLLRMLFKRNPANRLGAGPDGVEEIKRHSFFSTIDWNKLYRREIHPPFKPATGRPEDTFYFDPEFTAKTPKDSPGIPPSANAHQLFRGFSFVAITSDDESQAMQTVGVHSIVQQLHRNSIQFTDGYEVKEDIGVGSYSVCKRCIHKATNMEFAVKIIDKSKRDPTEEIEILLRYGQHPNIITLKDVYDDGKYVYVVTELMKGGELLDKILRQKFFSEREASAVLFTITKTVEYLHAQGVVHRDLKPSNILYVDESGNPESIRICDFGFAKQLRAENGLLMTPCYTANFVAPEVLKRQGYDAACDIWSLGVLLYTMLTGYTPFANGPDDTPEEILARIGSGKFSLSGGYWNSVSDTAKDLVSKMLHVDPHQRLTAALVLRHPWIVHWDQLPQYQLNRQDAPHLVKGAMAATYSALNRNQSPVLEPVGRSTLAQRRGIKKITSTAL
Test: KINOMEscan competition binding
Conditions: compound 10.0 µM
Readout kind: kinase still bound, per cent of control (%)
Reply numerically in %, unit not repeated.

Consider the compound shown here: COc1cc(C)c(Sc2cnc(NC(=O)c3ccc(CNC(C)C(C)C)cc3)s2)cc1C(=O)N1CCN(C(C)=O)CC1 (configuration not stated) What is its recorded kinase still bound, per cent of control?
100

Consider the compound shown here: CCc1nc(-c2cccc(C)c2)c(-c2ccnc(NC(=O)c3ccccc3)c2)s1 What is its recorded kinase still bound, per cent of control?
93

Consider the compound shown here: N#Cc1cc(-c2ccnc(Nc3ccc(-n4cnc(-c5cccnc5)n4)cc3)n2)cc(N2CCOCC2)c1 What is its recorded kinase still bound, per cent of control?
69

Consider the compound shown here: COc1cc(N2CCC(C(N)=O)CC2)ccc1Nc1nc(N)c(Cl)c(Nc2ccccc2S(=O)(=O)C(C)C)n1 What is its recorded kinase still bound, per cent of control?
100

Consider the compound shown here: CNC(=O)Nc1ccc(-c2nc(N3CC4CCC(C3)O4)c3cnn(C4CCC5(CC4)OCCO5)c3n2)cc1 What is its recorded kinase still bound, per cent of control?
100

Consider the compound shown here: CC(=O)c1c(C)c2cnc(Nc3ccc(N4CCNCC4)cn3)nc2n(C2CCCC2)c1=O What is its recorded kinase still bound, per cent of control?
28

Consider the compound shown here: O=c1[nH]c2ccccc2n1C1CCN(Cc2ccc(-c3nc4cc5[nH]cnc5cc4nc3-c3ccccc3)cc2)CC1 What is its recorded kinase still bound, per cent of control?
67

----------
Test system: EGFR (human), P00533 [A750P; 747-749 del]
Assay: KINOMEscan competition binding
Conditions: compound 10.0 µM
Task for the reader: assign each of the following molecules its reported kinase still bound, per cent of control.
Reply numerically in %, unit not repeated.

Consider the molecule shown here: OCCCNc1cc(-c2ccnc(Nc3cccc(Cl)c3)n2)ccn1 What is its recorded kinase still bound, per cent of control?
100

Consider the molecule shown here: CC1=C(C(=O)Nc2cc3cn[nH]c3cc2F)C(c2ccc(C(F)(F)F)cc2)CC(=O)N1 (stereo unspecified) What is its recorded kinase still bound, per cent of control?
36

Consider the molecule shown here: O=C(NC1CC1)c1cccc(-c2ccc3c(NC(=O)C4CC4)n[nH]c3c2)c1 What is its recorded kinase still bound, per cent of control?
82

Consider the molecule shown here: CCN1CCN(Cc2ccc(Nc3ncc4c(n3)N(C)c3ccccc3C(=O)N4C)cc2C(F)(F)F)CC1 What is its recorded kinase still bound, per cent of control?
79

Consider the molecule shown here: CCN1CCN(Cc2ccc(NC(=O)c3ccc(C)c(/C=C/c4cnc5[nH]ccc5c4OC)c3)cc2C(F)(F)F)CC1 What is its recorded kinase still bound, per cent of control?
1.1

Consider the molecule shown here: CCCS(=O)(=O)Nc1ccc(F)c(C(=O)c2c[nH]c3ncc(-c4ccc(Cl)cc4)cc23)c1F What is its recorded kinase still bound, per cent of control?
74

Consider the molecule shown here: COc1cc(N2CCC(C(N)=O)CC2)ccc1Nc1nc(N)c(Cl)c(Nc2ccccc2S(=O)(=O)C(C)C)n1 What is its recorded kinase still bound, per cent of control?
0.15

Consider the molecule shown here: COc1cc2c(Nc3ccc(NC(=O)c4ccccc4)cc3)ncnc2cc1OCCCN1CCOCC1 What is its recorded kinase still bound, per cent of control?
22

Consider the molecule shown here: O=c1[nH]c2ccccc2n1C1CCN(Cc2ccc(-c3nc4cc5[nH]cnc5cc4nc3-c3ccccc3)cc2)CC1 What is its recorded kinase still bound, per cent of control?
77

Consider the molecule shown here: CCN1CCN(C(=O)Cc2ccc(Nc3ncc(F)c(Nc4ccc(C(=O)Nc5ccccc5Cl)cc4)n3)cc2)CC1 What is its recorded kinase still bound, per cent of control?
11

Consider the molecule shown here: Cc1ccc(NC(=O)c2cccc(C(C)(C)C#N)c2)cc1Nc1ccc2ncn(C)c(=O)c2c1 What is its recorded kinase still bound, per cent of control?
11

Consider the molecule shown here: CCN(CC)CCCCNc1ncc2c(n1)N(C)C(=O)N(c1c(Cl)c(OC)cc(OC)c1Cl)C2 What is its recorded kinase still bound, per cent of control?
100

Consider the molecule shown here: Cn1c(=O)n(-c2ccc(C(C)(C)C#N)cc2)c2c3cc(-c4cnc5ccccc5c4)ccc3ncc21 What is its recorded kinase still bound, per cent of control?
100

Consider the molecule shown here: Nc1ccc(-c2ccc3ncc4ccc(=O)n(-c5cccc(C(F)(F)F)c5)c4c3c2)cn1 What is its recorded kinase still bound, per cent of control?
100

Consider the molecule shown here: COc1cc2ncnc(-n3nc(-c4ccccn4)nc3N)c2cc1OC What is its recorded kinase still bound, per cent of control?
44

Consider the molecule shown here: O=C1NC(=O)/C(=C/c2ccc3nccc(-c4ccncc4)c3c2)S1 What is its recorded kinase still bound, per cent of control?
47

Consider the molecule shown here: CN(C)C/C=C/C(=O)Nc1cccc(Nc2ncc3c(n2)N(C)c2ccccc2C(=O)N3C)c1 What is its recorded kinase still bound, per cent of control?
71

Consider the molecule shown here: CCCS(=O)(=O)Nc1ccc(F)c(C(=O)c2c[nH]c3ncc(Cl)cc23)c1F What is its recorded kinase still bound, per cent of control?
77

Consider the molecule shown here: N#Cc1cc(-c2ccnc(Nc3ccc(-n4cnc(-c5cccnc5)n4)cc3)n2)cc(N2CCOCC2)c1 What is its recorded kinase still bound, per cent of control?
62

Consider the molecule shown here: COc1cc(N2CCN(C)CC2)ccc1Nc1ncc2c(n1)N(C)c1ccccc1C(=O)N2C What is its recorded kinase still bound, per cent of control?
100

Consider the molecule shown here: COc1ccc(N(C(=O)Oc2cc(C(=O)Nc3cccc(C(F)(F)F)c3)ccc2C)c2ccnc(Nc3ccc(N4CCN(C)CC4)cc3)n2)c(OC)c1 What is its recorded kinase still bound, per cent of control?
0.6

Consider the molecule shown here: COc1ccc(N(C(=O)Oc2c(C)cccc2C)c2ccnc(Nc3ccc(N4CCN(C)CC4)cc3)n2)c(OC)c1 What is its recorded kinase still bound, per cent of control?
1

Consider the molecule shown here: COc1cc(C)c(Sc2cnc(NC(=O)c3ccc(CNC(C)C(C)C)cc3)s2)cc1C(=O)N1CCN(C(C)=O)CC1 (stereo unspecified) What is its recorded kinase still bound, per cent of control?
100

Consider the molecule shown here: Cc1cc([C@@H](C)Nc2ccccc2C(=O)O)c2nc(N3CCOCC3)cc(=O)n2c1 What is its recorded kinase still bound, per cent of control?
100

Consider the molecule shown here: C=CC(=O)Nc1ccc(CN(C(=O)Nc2c(Cl)c(OC)cc(OC)c2Cl)c2cc(Nc3ccc(N4CCN(C)CC4)cc3)ncn2)cc1 What is its recorded kinase still bound, per cent of control?
0.55

Consider the molecule shown here: CN(C)C/C=C/C(=O)Nc1ccc(C(=O)Nc2cccc(Nc3nccc(-c4cccnc4)n3)c2)cc1 What is its recorded kinase still bound, per cent of control?
100

Consider the molecule shown here: N#CCNC(=O)c1ccc(-c2ccnc(Nc3ccc(N4CCOCC4)cc3)n2)cc1 What is its recorded kinase still bound, per cent of control?
100

Consider the molecule shown here: C=CC(=O)Nc1cc(-n2c(=O)ccc3cnc4ccc(-c5cn[nH]c5)cc4c32)ccc1C What is its recorded kinase still bound, per cent of control?
26

Consider the molecule shown here: COc1cc2ncnc(Nc3cccc(Cl)c3)c2cc1OC What is its recorded kinase still bound, per cent of control?
1.4

Consider the molecule shown here: C=CC(=O)Nc1ccc(C(=O)c2sc(Nc3ccc(N4CCN(C)CC4)cc3OC)nc2N)cc1 What is its recorded kinase still bound, per cent of control?
61

Consider the molecule shown here: O=C1Nc2ccc(I)cc2/C1=C/c1cc(Br)c(O)c(Br)c1 What is its recorded kinase still bound, per cent of control?
36

Consider the molecule shown here: CCC(=O)N1CCN(c2ccc(-n3c(=O)ccc4cnc5ccc(-c6cnc7ccccc7c6)cc5c43)cc2C(F)(F)F)CC1 What is its recorded kinase still bound, per cent of control?
100

Consider the molecule shown here: NC(=O)Nc1cc(-c2cccc(F)c2)sc1C(=O)N[C@@H]1CCCNC1 What is its recorded kinase still bound, per cent of control?
0.65

Consider the molecule shown here: COc1cc(C(=O)NC2CCN(C)CC2)ccc1Nc1ncc2c(n1)N(C1CCCC1)C(C)CC(=O)N2C (stereo unspecified) What is its recorded kinase still bound, per cent of control?
100

Consider the molecule shown here: Cc1cn(-c2cc(C(=O)Nc3ccc(C)c(NC(=O)c4ccno4)c3)cc(C(F)(F)F)c2)cn1 What is its recorded kinase still bound, per cent of control?
100

Consider the molecule shown here: C=CC(=O)Nc1cc(NC(=O)c2ccc(C)c(NC(=O)c3ccno3)c2)cc(C(F)(F)F)c1 What is its recorded kinase still bound, per cent of control?
100

----------
Target: MAP3K6 (human)
Assay: KINOMEscan competition binding
Settings: compound 10.0 µM
Readout kind: kinase still bound, per cent of control (%)
Reply numerically in %, unit not repeated.

Consider the compound shown here: CCCS(=O)(=O)Nc1ccc(F)c(C(=O)c2c[nH]c3ncc(Cl)cc23)c1F What is its recorded kinase still bound, per cent of control?
96

Consider the compound shown here: CNC(=O)Nc1ccc(-c2nc(N3CC4CCC(C3)O4)c3cnn(C4CCC5(CC4)OCCO5)c3n2)cc1 What is its recorded kinase still bound, per cent of control?
80

Consider the compound shown here: COc1cc2ncnc(Nc3cccc(Cl)c3)c2cc1OC What is its recorded kinase still bound, per cent of control?
43

Consider the compound shown here: C=CC(=O)Nc1ccc(C(=O)c2sc(Nc3ccc(N4CCN(C)CC4)cc3OC)nc2N)cc1 What is its recorded kinase still bound, per cent of control?
84

Consider the compound shown here: COc1cc2c(Nc3ccc(NC(=O)c4ccccc4)cc3)ncnc2cc1OCCCN1CCOCC1 What is its recorded kinase still bound, per cent of control?
100

Consider the compound shown here: CCN1CCN(Cc2ccc(NC(=O)c3ccc(C)c(/C=C/c4cnc5[nH]ccc5c4OC)c3)cc2C(F)(F)F)CC1 What is its recorded kinase still bound, per cent of control?
64

Consider the compound shown here: N#C/C(=C1/Nc2ccccc2S1)c1ccnc(NCCc2cccnc2)n1 What is its recorded kinase still bound, per cent of control?
100

Consider the compound shown here: O=c1[nH]c2ccccc2n1C1CCN(Cc2ccc(-c3nc4cc5[nH]cnc5cc4nc3-c3ccccc3)cc2)CC1 What is its recorded kinase still bound, per cent of control?
100

Consider the compound shown here: CCc1nc(-c2cccc(C)c2)c(-c2ccnc(NC(=O)c3ccccc3)c2)s1 What is its recorded kinase still bound, per cent of control?
100

Consider the compound shown here: CCOc1cc(N2CCC(O)CC2)ccc1Nc1ncc2c(n1)N(C)c1ccccc1C(=O)N2C What is its recorded kinase still bound, per cent of control?
100

Consider the compound shown here: CC(=O)c1c(C)c2cnc(Nc3ccc(N4CCNCC4)cn3)nc2n(C2CCCC2)c1=O What is its recorded kinase still bound, per cent of control?
69

Consider the compound shown here: N#Cc1cc(-c2ccnc(Nc3ccc(-n4cnc(-c5cccnc5)n4)cc3)n2)cc(N2CCOCC2)c1 What is its recorded kinase still bound, per cent of control?
88

Consider the compound shown here: CC1=C(C(=O)Nc2cc3cn[nH]c3cc2F)C(c2ccc(C(F)(F)F)cc2)CC(=O)N1 (centres undefined) What is its recorded kinase still bound, per cent of control?
80

Consider the compound shown here: Cc1cn(-c2cc(C(=O)Nc3ccc(C)c(NC(=O)c4ccno4)c3)cc(C(F)(F)F)c2)cn1 What is its recorded kinase still bound, per cent of control?
100
